Biological target: T1, Y. pestis F1 protein (Yersinia pestis KIM5, UniProt P26948 22-170)
T1 construct: also called F1 antigen; Fl
T1 sequence (P26948 22-170 limits assumed): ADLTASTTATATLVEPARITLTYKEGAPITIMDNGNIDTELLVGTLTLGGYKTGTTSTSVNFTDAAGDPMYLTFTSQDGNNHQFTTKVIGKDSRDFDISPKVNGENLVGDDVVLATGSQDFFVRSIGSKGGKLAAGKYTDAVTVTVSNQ
Experiment: Microcal (calorimetry)
reported_metric: pKd
Please treat pKd as minus the base-10 logarithm of the molar concentration.

Completed entries (count: 3):
INSERT INTO measurements (binder, reported_metric, data_value) VALUES
  ('3F5 (VHH) VHH: QVQLQESGGGLVQSGDSLRLSCAASGFTFSNYAMSWVRQAPGKGLEWVSTINSGGGSTSYAYSVKGRFTISRDNAKNTLYLQMNSLKPEDTAVYYCAKTASHIPLSQGTQVTVSS', 'pKd', 7.08),
  ('3F55 (VHH) VHH: QVQLQESGGGLVQAGGSLRLSCAVSGMMYIREAIRWYRQAPGKQREWVAFVSSTGNPRYTDSVKGRFTISRDNAKNTVYLQMNSLTPEDTAVYYCNTYLGSRDYWGQGTQVTVSS', 'pKd', 6.72),
  ('3F85 (VHH) VHH: QVQLQESGGGLVQPGGSLRLSCAVSGMMYIRYTMRWYRQAPGKQREWVAVVSSTGNPHYADSVKGRFTISRDNAKNTVYLQMNSLTPEDTAVYYCNTYLGSRDYWGQGTQVTVSS', 'pKd', 6.96);

Query :: Fill in: pKd of 4F59 (VHH) VHH: QVQLQESGGGLVRPGGSLRLSCEASGTTFRSLVMKWYRQAPGKEREWVAFISSPGDRTRYTEAVKGRFTISRDNAKNALYLQMNGLKPEDTAVYYCNANGIYWGKGTQVTVSS is ___
Result :: 7.08
